B1: Twister Ribozyme (parent)
chain: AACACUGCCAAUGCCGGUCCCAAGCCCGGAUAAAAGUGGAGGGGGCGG

Variants of: B1
Test: self-cleavage, relative activity (ratio to wild type); higher = more cleavage; co-transcriptional
Kind request: treat 0.3 as inclusive, so self-cleavage at 0.3 or higher is True, anything lower is False.

# example entries with known answers
[[record]]
variant_id = "C21G C25G"
label_class = "False"

[[record]]
variant_id = "A11G G13C"
label_class = "True"

[[record]]
variant_id = "C5A C26U"
label_class = "False"

[[record]]
variant_id = "A2G C19A"
label_class = "False"

[[record]]
variant_id = "G24C G28A"
label_class = "False"

[[record]]
variant_id = "C3U U18A"
label_class = "False"

[[record]]
variant_id = "G36A G38C"
label_class = "True"

[[record]]
variant_id = "A10U A35U"
label_class = "True"

[[record]]
variant_id = "G42C G45A"
label_class = "True"

[[record]]
variant_id = "C21U A34C"
label_class = "False"


-- ask I'd appreciate it if you could say whether A11G C26A has self-cleavage at least equal to 0.3.
-- reply False

-- ask I'd appreciate it if you could say whether C26G A33U has self-cleavage at least equal to 0.3.
-- reply False

-- ask I'd appreciate it if you could say whether U12G C26A has self-cleavage at least equal to 0.3.
-- reply True

-- ask I'd appreciate it if you could say whether C21G C26A has self-cleavage at least equal to 0.3.
-- reply False

-- ask I'd appreciate it if you could say whether G45U G48U has self-cleavage at least equal to 0.3.
-- reply True

-- ask I'd appreciate it if you could say whether G43A C46G has self-cleavage at least equal to 0.3.
-- reply True
